Measured values drawn from paper PMC9352680 for this set.

Recorded measurements of Kd, one per entry
Biological target: T1, PUF4 RNA-binding domain (Saccharomyces cerevisiae, UniProt P25339 537-888)
T1 sequence: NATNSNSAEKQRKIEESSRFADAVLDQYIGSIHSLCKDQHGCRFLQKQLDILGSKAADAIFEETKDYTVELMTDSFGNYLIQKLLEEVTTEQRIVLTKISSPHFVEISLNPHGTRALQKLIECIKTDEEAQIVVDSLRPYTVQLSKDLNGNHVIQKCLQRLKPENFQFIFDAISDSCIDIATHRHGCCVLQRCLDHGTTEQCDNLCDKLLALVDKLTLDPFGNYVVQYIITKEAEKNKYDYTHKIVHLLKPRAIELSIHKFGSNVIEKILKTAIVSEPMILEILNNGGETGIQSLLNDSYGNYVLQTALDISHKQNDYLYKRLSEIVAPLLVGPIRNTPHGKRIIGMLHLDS
Assay: Mg; RNA-MaP; 20 mM Na-HEPES pH 7.4, 30 mM KOAc, 0.75 mM MgCl2, 0.1% Tween-20, 5% glycerol, 0.1 mg/mL BSA, 2 mM DTT; 25 C; 0.0125-409.6 nM protein
Details: tags: N-His6-TEV cleaved; C-SNAP kept, Cy3B-labelled; label: tethered on chip by stalled RNA polymerase
Kindly answer with a numeric value in nM, unit omitted.

INSERT INTO assay_data (binder, recorded_measurement) VALUES
  ('Id_ii_S2_P3E.2_K3.1_C3.2_[C-2A]_[T-1G]_H3.1_A3.1_F3.1_T3.2_[A10T] (ssRNA) RNA: UUUGAUUAAUAUGAUAUCGUUCUUUCUAGUGUAUAUAUUUUCUUUCUCGAUAUCAUAUUAAUCUUU', 4.88);

The reported Kd of the binder ACAAACGCUAUAUAUUAUUACAAAC (ssRNA) [Id_ii_S3_P4E.3_K4.2_C4.2_[C-2G]_[T-1C]_H4.2_A4.1_F4.1_T4.2_[G10T]] was 14.4

The reported Kd of the binder Id_ii_S2_P3E.2_K3.1_C3.2_[C-2T]_H3.1_A3.1_F3.1_T3.2_[A10T] (ssRNA) RNA: UUUGAUUAAUAUGAUAUCGUUCUUUCUUUUGUAUAUAUUUUCUUUCUCGAUAUCAUAUUAAUCUUU was 1.56

The reported Kd of the binder UCUCUUCUUGUAUUAUUAUGUCUCUU (ssRNA) [Id_ii_S1_P5E.2_K5.1_C5.2_H5.1_A5.1_F5.1_T5.2_[A12G]] was 5.83
